What LDH Increase - Index Value was measured for each of the following?
tested on: Hepatotoxicity; experiment: FDA HLAED, lactate dehydrogenase (LDH) increase; settings: human; note: reference of the scale not given here
The answer should be a number; do not append a unit.

Entry under review: `Clc1ccc2c(c1)C(c1ccccc1)=NCc1nncn1-2` . Reported LDH Increase - Index Value? 0

Now consider NC1=NC(=O)C(c2ccccc2)O1 (stereo not given) . 6.2

Also, CC(NCCc1ccc(O)cc1)C(O)c1ccc(O)cc1 (stereo not given) please. 0

// repeat for CC(=O)O[C@H]1C[C@@H]2CC[C@@H]3[C@H](CC[C@@]4(C)[C@H]3C[C@H]([N+]3(C)CCCCC3)[C@@H]4OC(C)=O)[C@@]2(C)C[C@@H]1N1CCCCC1.[Br-] [VECURONIUM BROMIDE] and report 1

Try CCN(CC)CCNC(=O)c1cc(Cl)c(N)cc1OC [METOCLOPRAMIDE] next. 0

Repeat for the following compound: CC1(C)O[C@@H]2C[C@H]3[C@@H]4C[C@H](F)C5=CC(=O)C=C[C@]5(C)[C@H]4[C@@H](O)C[C@]3(C)[C@]2(C(=O)CO)O1 [FLUNISOLIDE] 0

And the next one, OC(c1cc(C(F)(F)F)nc2c(C(F)(F)F)cccc12)C1CCCCN1 (stereo not given) ? 0

Likewise for `O=c1[nH]c(=O)n([C@H]2C[C@H](O)[C@@H](CO)O2)cc1C(F)(F)F` ? 0

Try this compound next: O=C1CC[C@@]2(O)[C@H]3Cc4ccc(O)c5c4[C@@]2(CCN3CC2CC2)[C@H]1O5 [NALTREXONE] 0

Param item: `C=CCN1C[C@H](C(=O)N(CCCN(C)C)C(=O)NCC)C[C@@H]2c3cccc4[nH]cc(c34)C[C@H]21` 0

Also `CCCCc1nc(Cl)c(CO)n1Cc1ccc(-c2ccccc2-c2nn[nH]n2)cc1` ? 0.4

Cool, now `Cc1ccc(C)c(OCCCC(C)(C)C(=O)O)c1` 0

Same read-out for C[C@]12CC[C@@H]3c4ccc(O)cc4CC[C@H]3[C@@H]1CC[C@@H]2OC(=O)CCC1CCCC1 [ESTRADIOL CYPIONATE] ? 1.2

And the next one, `CCCCC(=O)N(Cc1ccc(-c2ccccc2-c2nnn[nH]2)cc1)[C@H](C(=O)O)C(C)C` ? 0

Again, but for Clc1ccc(CCC(Cn2ccnc2)Sc2c(Cl)cccc2Cl)cc1 (stereo not given) 0

Now try `CN(C)c1nc(N(C)C)nc(N(C)C)n1` . 0

Again, but for `C[C@H](O)C(=O)Nc1c(I)c(C(=O)NC(CO)CO)c(I)c(C(=O)NC(CO)CO)c1I` 1579

Request: COC(=O)C1=C(C)NC(C)=C(C(=O)OC(C)C)C1c1cccc2nonc12 (stereo not given) 0.3

Please give the result for O=C(NCC1CCCCN1)c1cc(OCC(F)(F)F)ccc1OCC(F)(F)F (stereo not given) [FLECAINIDE] too. 3.2

Then this compound: `O=NN(CCCl)C(=O)NCCCl` 14.6

Lookup CNCC(O)c1ccc(OC(=O)C(C)(C)C)c(OC(=O)C(C)(C)C)c1 (stereo not given) 0

And the next one, `CC(C)(C)NC(=O)[C@@H]1C[C@@H]2CCCC[C@@H]2CN1C[C@@H](O)[C@H](Cc1ccccc1)NC(=O)[C@H](CC(N)=O)NC(=O)c1ccc2ccccc2n1` ? 0

How about CCN[C@H]1C[C@H](C)S(=O)(=O)c2sc(S(N)(=O)=O)cc21 [DORZOLAMIDE] ? 0.1

And for CN1C2CCCC1CC(NC(=O)c1nn(C)c3ccccc13)C2 (stereo not given) ? 0.2

Same thing, different compound: `O=C(O)[C@@H](S)[C@@H](S)C(=O)O` 43.9

Next compound up: `O=C(O)C1=C(CSc2nnnn2CS(=O)(=O)O)CS[C@@H]2[C@H](NC(=O)[C@H](O)c3ccccc3)C(=O)N12` 0

And the next one, `CCCCc1oc2ccccc2c1C(=O)c1cc(I)c(OCCN(CC)CC)c(I)c1` ? 0

Now consider N[C@@H](C(=O)N[C@@H]1C(=O)N2C(C(=O)O)=C(Cl)CC[C@H]12)c1ccccc1 [LORACARBEF ANHYDROUS] . 0

Also need CCCCCCC(C)(C)c1cc(O)c2c(c1)OC(C)(C)C1CCC(=O)CC21 (stereo not given) , thanks. 0

Moving on to the next compound: `NCCC(O)(P(=O)(O)O)P(=O)(O)O` 4.1

Do the same for CC(CCc1ccc(O)cc1)NCCc1ccc(O)c(O)c1 (stereo not given) please 0

Proceed to NC(=O)OCC(COC(N)=O)c1ccccc1 [FELBAMATE] 8.3

How about this compound: `CO/N=C(\C(=O)N[C@@H]1C(=O)N2C(C(=O)O)=C(COC(N)=O)CS[C@H]12)c1ccco1` 0

Would you mind doing `O=C1CN=C(c2ccccc2)c2cc(Cl)ccc2N1CC(F)(F)F` as well? 0
